Recorded bioavailability by entry
test: Bioavailability in rat (Wistar); assay type: ADME, organism-based; settings: in vivo

Here's what some known entries look like.
NCCCC[C@H](NC(=O)[C@@H]1C=CCN1C(=O)[C@@H](CC1CCCCC1)NCC(=O)O)C(=O)C(=O)O 37%
NCCCC[C@H](NC(=O)[C@@H]1CCCN1C(=O)[C@H](N)CC1CCCCC1)C(=O)c1nccs1 < 5%

--- query ---
What does the record list as bioavailability for "NCCCC[C@H](NC(=O)[C@@H]1CCN1C(=O)[C@@H](CC1CCCCC1)NCC(=O)O)C(=O)C(=O)O" ? 15%

###

test: Oral bioavailability; type: ADME, organism-based; details: eutheria, in vivo
assay.readout: bioavailability (%)
Field: numeric (%). Do not append units.

For orientation, consider the following solved cases.
compound	value.unit	bioavailability
NCCCC[C@H](NC(=O)[C@@H]1CCCN1C(=O)[C@@H](CC1CCCCC1)NCC(=O)O)C(=O)c1ncco1	%	28
NCCCC[C@H](NC(=O)[C@@H]1CCCN1C(=O)[C@H](N)CC1CCCCC1)C(=O)C(=O)O	%	9
NCCCC[C@H](NC(=O)[C@@H]1CCCN1C(=O)[C@@H](CC1CCCCC1)NCC(=O)O)C(=O)C(=O)O	%	39
CC1CNc2c(cccc2S(=O)(=O)N[C@@H](CCCNC(=N)N)C(=O)N2CC[C@@H](C)C[C@@H]2C(=O)O)C1 (stereo partly specified) [ARGATROBAN]	%	27

Switching to the query record.
Which bioavailability reading was recorded for the compound "NCCCC[C@H](NC(=O)[C@@H]1CCCN1C(=O)[C@@H](CC1CCCCC1)NCC(=O)O)C(=O)c1nccs1" ? 23

###

test: Half life value in wistar rats; assay type: ADME, organism-based; settings: rat, in vivo
half-life reference
Answer format: numeric, min implied, no suffix.

// query half-life value for entry "NCCCC[C@H](NC(=O)[C@@H]1CCN1C(=O)[C@@H](CC1CCCCC1)NCC(=O)O)C(=O)C(=O)O" 21

Request the reported half-life associated with "NCCCC[C@H](NC(=O)[C@@H]1CCCCN1C(=O)[C@@H](CC1CCCCC1)NCC(=O)O)C(=O)C(=O)O" 5

Please look up its half-life: "NCCCC[C@H](NC(=O)[C@@H]1C=CCN1C(=O)[C@@H](CC1CCCCC1)NCC(=O)O)C(=O)C(=O)O" 22

Please give the measured half-life for this compound: "NCCCC[C@H](NC(=O)[C@@H]1CCCN1C(=O)[C@@H](CC1CCCCC1)NCC(=O)O)C(=O)C(=O)O" 19

Given "NCCCC[C@H](NC(=O)[C@@H]1CCCN1C(=O)[C@H](N)CC1CCCCC1)C(=O)c1nccs1" , state its recorded half-life. 17

###

assay: Bioavailability in dog determined; format: ADME, organism-based, Canis lupus familiaris; conditions: in vivo
assay.readout: bioavailability
The answer should read as a number with its unit following.

What value of bioavailability has been recorded for this entry: "NCCCC[C@H](NC(=O)[C@@H]1CCCN1C(=O)[C@@H](CC1CCCCC1)NCC(=O)O)C(=O)C(=O)O" 24%

###

assay: Bioavailability in dog; assay type: ADME, organism-based, Canis lupus familiaris; details: in vivo
In this section we review reported bioavailability values for a set of compounds.
# answer = value followed by unit

Worked set:
NCCCC[C@H](NC(=O)[C@@H]1C=CCN1C(=O)[C@@H](CC1CCCCC1)NCC(=O)O)C(=O)C(=O)O 68%
NCCCC[C@H](NC(=O)[C@@H]1CCN1C(=O)[C@@H](CC1CCCCC1)NCC(=O)O)C(=O)C(=O)O 1%

Proceeding to the next compound to report its bioavailability.
Which bioavailability value belongs to "CC(C)OC(=O)C(=O)[C@H](CCCCN)NC(=O)[C@@H]1CCCN1C(=O)[C@@H](CC1CCCCC1)NCC(=O)O" ? 71%
